system: Raw264.7 cells; experiment: Measurement of cell viability (MTT); format: cell-based, mouse; conditions: with LPS 1 μg/mL, 24 hrs, mean of three measurements, read-out: Cell viability (IC50 for cell toxicity)
result-type: IC50

Below, each entry is followed by its recorded IC50 result.
CCOc1ccc(OC(=O)NN(c2ccccc2)S(=O)(=O)c2ccc(Cl)cc2)cc1 :: > 10 µM
O=C(NN(c1ccccc1)S(=O)(=O)c1ccc(Cl)cc1)Oc1ccc(OCc2ccccc2)cc1 :: > 10 µM
COc1ccc(S(=O)(=O)N(NC(=O)Oc2ccc3c(c2)CCC3)c2ccccc2)cc1 :: > 0.1 µM
COc1ccccc1OC(=O)NN(c1ccccc1)S(=O)(=O)c1ccc(Cl)cc1 :: > 10 µM
O=C(NN(c1ccccc1)S(=O)(=O)c1ccc(C(F)(F)F)cc1)Oc1ccc2c(c1)CCC2 :: > 1 µM
O=C(NN(c1ccccc1)S(=O)(=O)c1ccc(C(F)(F)F)cc1)Oc1ccc(OCc2ccccc2)cc1 :: > 0.1 µM

(Q) Quickly give me recorded IC50 for CCCc1ccc(S(=O)(=O)N(NC(=O)Oc2ccc(Oc3ccccc3)cc2)c2ccccc2)cc1
(A) > 10 µM

(Q) Quickly give me recorded IC50 for COc1ccc(S(=O)(=O)N(NC(=O)Oc2ccc(Oc3ccccc3)cc2)c2ccccc2)cc1
(A) > 0.1 µM

###

System: PGE2 production
Test: Inhibitory activity on PGE2 production in LPS-treated Raw264.7 cells (PGE2 immunoassay)
Assay type: cell-based, mouse
Details: LPS 1 μg/mL, mean of three measurements, read-out: Inhibition of PGE2 production IC50
Description: Raw264.7 cells (macrophage cell line from mouse) were obtained from Korean Cell Line Bank (KCLB) and cultured in Dulbecco's modified Eagle's medium (DMEM) containing 10% Fetal Bovine Serum (FBS), penicillin (100 units/mL), streptomycin sulfate (100 μg/mL) at 37° C. and 5% CO2 in humidified environment. […] 50 μL of stop solution was added and an absorbance was measured at 405 nm. […]
result-type: pIC50
To interpret pIC50, take it as minus log10 of a concentration measured in moles per litre.

Below, each entry is followed by its recorded pIC50 result.
COc1ccc(S(=O)(=O)N(NC(=O)Oc2ccc3c(c2)CCC3)c2ccccc2)cc1 [Example 9] :: 8.35
CCc1ccc(OC(=O)NN(c2ccccc2)S(=O)(=O)c2ccc(OC)cc2)cc1 [Example 7] :: 7.55
CC(C)c1ccc(S(=O)(=O)N(NC(=O)Oc2ccc(Oc3ccccc3)cc2)c2ccccc2)cc1 [Example 24] :: 6.89
O=C(NN(c1ccccc1)S(=O)(=O)c1ccc(Cl)cc1)Oc1ccc(Oc2ccccc2)cc1 [Example 14] :: 8.29
O=C(NN(c1ccccc1)S(=O)(=O)c1ccc(Cl)cc1)Oc1ccc2c(c1)CCC2 [Example 26] :: 7.15

(Q) Report pIC50 under test system PGE2 production for COc1ccccc1OC(=O)NN(c1ccccc1)S(=O)(=O)c1ccc(C)cc1 [Example 3] .
(A) 7.47

(Q) Report pIC50 under test system PGE2 production for CCCc1ccc(S(=O)(=O)N(NC(=O)Oc2ccc(Oc3ccccc3)cc2)c2ccccc2)cc1 [Example 20] .
(A) 6.87

(Q) Report pIC50 under test system PGE2 production for CCOc1ccc(OC(=O)NN(c2ccccc2)S(=O)(=O)c2ccc(OC)cc2)cc1 [Example 5] .
(A) 7.69
